Test system: XF 498 CNS
method summary: NCI tumour cell line growth inhibition, 48 h
property label: TGI

INSERT INTO measurements (molecule, result) VALUES
  ('C=C1CC2(OC1=O)c1ccccc1CCc1ccccc12', '3.88 µM'),
  ('CC(C)(C)C1CCC2c3c([nH]c4ccccc34)C3C(=O)N(c4ccc(Br)cc4)C(=O)C3C2C1 (stereo not given)', '76.2 µM'),
  ('C=C1C(=O)C=C2C=C3C(=O)C(C)(C)C[C@]3(O)C12C (stereo not given in full)', '3.56 µM'),
  ('C/C=C/C=C/[C@H]1Cc2cc(O)cc(O)c2O1', '> 100 µM'),
  ('CN(C)CC1(C)CC/C(=C\c2ccc3c(c2)OCO3)C1=O (stereo not given)', '> 100 µM'),
  ('CN/N=C(\C)CC(=O)Nc1cccc(Cl)c1C', '> 100 µM'),
  ('Cc1c2n(c3ccccc13)CC1C2N(C)OC1(C)C (stereo not given)', '> 100 µM'),
  ('CNC(=O)OCc1nc(S(C)=O)n(C)c1COC(=O)NC (stereo not given)', '> 100 µM'),
  ('CC(=O)O[C@H]1CCC2[C@@H]3CCC4C(=O)c5oncc5C[C@]4(C)C3CC[C@@]21C (stereo not given in full)', '> 100 µM'),
  ('CC(NC1CCC[C@H]1O)c1ccccc1 (mixture of isomers)', '> 100 µM');

* * *

System: OVCAR-3 ovarian
method summary: NCI tumour cell line growth inhibition, 48 h
Please mark Criterion met if the recorded TGI is equal to or greater than 30 µM, and Criterion not met if it falls below.

INSERT INTO measurements (compound, category_label) VALUES
  ('COC(=O)C(Cc1ccccc1)NS(=O)(=O)c1ccc(-c2c3nc(c(-c4ccc(S(=O)(=O)NC(Cc5ccccc5)C(=O)OC)cc4)c4ccc([nH]4)c(-c4ccc(S(=O)(=O)NC(Cc5ccccc5)C(=O)OC)cc4)c4nc(c(-c5ccc(S(=O)(=O)NC(Cc6ccccc6)C(=O)OC)cc5)c5ccc2[nH]5)C=C4)C=C3)cc1 (centres undefined)', 'Criterion met'),
  ('CC1CC2C3CC(F)C4=CC(=O)C=CC4(C)C3(F)C(O)CC2(C)C1(O)C(=O)CO (centres undefined)', 'Criterion met'),
  ('Cc1oc2c(c1C(=O)c1ccccc1)C(=O)c1ccccc1C2=O', 'Criterion not met'),
  ('N#Cc1ccc(-n2cnc(NC(=O)[C@H]3CCN(C#N)C3)c2)cc1', 'Criterion not met'),
  ('CC(NC1CCC[C@H]1O)c1ccccc1 (mixture of isomers)', 'Criterion met'),
  ('CC(C)(C)OC(=O)C(C1NC(C(=O)O)C(C)(C)S1)N1C(=O)c2ccccc2C1=O (centres undefined)', 'Criterion met'),
  ('COC(=O)c1c2c(c(C)[n+]([O-])c1C)C(=O)C(NCc1ccc(F)c(Cl)c1)=CC2=O', 'Criterion not met'),
  ('C=C1C(=O)C=C2C=C3C(=O)C(C)(C)C[C@]3(O)C12C (some centres undefined)', 'Criterion not met'),
  ('COC(=O)/C(=C/N1CCN(C(=O)c2ccco2)C1=S)C(C)=O', 'Criterion not met'),
  ('CCOC(=O)Cn1nc2ccc(Nc3nc4ccccc4nc3C(=O)OCC)cc2n1', 'Criterion met'),
  ('O=C(c1nsc(Cl)c1Cl)N1CCCCC1', 'Criterion met'),
  ('CC(=O)OCCn1c(Cc2ccc([N+](=O)[O-])cc2)nn(C(C)=O)c1=O', 'Criterion met'),
  ('OC[C@H]1CC(c2nn[nH]n2)[C@H](O)[C@@H]1O (some centres undefined)', 'Criterion met'),
  ('COc1ccc(-c2c(N)[n+]([O-])c3cc(C)c(C)cc3[n+]2[O-])cc1OC', 'Criterion met'),
  ('c1ccc(-c2cc(-c3cc(-c4ccccn4)[nH]n3)n[nH]2)nc1', 'Criterion met'),
  ('O=S(=O)(Nc1ccc(Cl)c(C(F)(F)F)c1)c1ccc(-c2cnc(C3CC3)o2)cc1', 'Criterion not met'),
  ('Cc1ccc2c(c1)NC(=O)C(N=[N+]=[N-])(c1ccccc1)C2=O (centres undefined)', 'Criterion met'),
  ('CC(C)NC(C)Cc1ccccc1 (centres undefined)', 'Criterion met'),
  ('C=CCSc1nn(CC=C)cc2ncnc1-2', 'Criterion met'),
  ('COc1cc(/C=C2\C(=O)N(c3c(Cl)cccc3Cl)c3ccccc32)cc(OC)c1O', 'Criterion not met'),
  ('O=C1C=C(Br)C(=O)C(Br)=C1', 'Criterion met'),
  ('CC(O[Si](C)(C)C(C)(C)C)[C@H](NC(=O)OCC(Cl)(Cl)Cl)C(=O)O (some centres undefined)', 'Criterion met'),
  ('Cc1sc(N=Nc2c(O)[nH]c3ccccc23)nc1-c1ccccc1', 'Criterion not met'),
  ('Nc1nc(N)c(-c2ccccc2)c(C(=O)Nc2ccc(Cl)c(Cl)c2)n1', 'Criterion met'),
  ('CCCCc1ccc(Nc2nc(Cl)c3[nH]cnc3n2)cc1', 'Criterion not met'),
  ('CC(C)CCNC(=O)c1ccc(CNC(=O)/C=C/c2ccc(-c3ccccc3[N+](=O)[O-])o2)cc1', 'Criterion met'),
  ('O=C1Nc2ccccc2SC1C1SC(=S)N(Cc2ccccc2)C1=O (centres undefined)', 'Criterion not met'),
  ('O=[N+]([O-])C(=C1Nc2ccccc2N1)C(Cl)=C(Cl)Cl', 'Criterion met'),
  ('CS(=O)(=O)C(=Cc1ccccc1Cl)S(C)(=O)=O', 'Criterion met'),
  ('C#C[C@]1(O)CC[C@H]2[C@@H]3CC=C4c5nc(Nc6ccc(OC)cc6OC)sc5CC[C@]4(C)[C@H]3CC[C@@]21C', 'Criterion not met'),
  ('Cc1c(-c2ccccc2)n(C)c2cn[nH]c(=O)c12', 'Criterion met'),
  ('CCCCCCCCCCCCCCCCCC(=O)NCCCNCCCNC(=O)CCCCCCCCCCCCCCCCC', 'Criterion met'),
  ('O=C1C(Nc2ccccn2)=C(I)C(=O)c2ncccc21', 'Criterion not met'),
  ('COc1ccc(-c2nc3ccc(C)cc3o2)c(OC)c1', 'Criterion met'),
  ('CC(=O)CN=C(C)NNc1ccc([N+](=O)[O-])cc1[N+](=O)[O-]', 'Criterion met'),
  ('COc1ccc2[nH]cc(/C=C3\C(=O)Nc4ccccc43)c2c1', 'Criterion met'),
  ('COC(=O)c1ccccc1CC1Cc2cc3c(cc2C1)CCC3', 'Criterion met'),
  ('COc1cc2c(cc1OC)-c1c(cc(OC)c(OC)c1OC)C2=O', 'Criterion met');

* * *

System: SK-MEL-5 melanoma
method summary: NCI tumour cell line growth inhibition, 48 h
property label: TGI (µM)

INSERT INTO results (compound, bound_type, readout_number) VALUES
  ('N#Cc1cccc(Nc2nccc(-c3cnn4ncccc34)n2)c1', '=', 0.018),
  ('c1ccc(-c2cc(-c3cc(-c4ccccn4)[nH]n3)n[nH]2)nc1', '>', 100),
  ('CC[n+]1[b-](C(C)(C)C)n(/N=C(\C)C(C)(C)C)[b-](C(C)(C)C)[n+]1CC', '>', 100),
  ('COC(=O)[C@]1(c2cc3ccccc3[nH]2)CC2CN(CC(=O)N(C)OC)C1C1OC(C)(C)OC21 (stereo partly specified)', '>', 100),
  ('O=C1OC(c2ccc([N+](=O)[O-])cc2)=N/C1=C\c1ccc(O)cc1', '>', 100),
  ('COc1cc(CNC(=O)CCCCCCCC/C=C/Br)ccc1O', '>', 10),
  ('C=C1CC(OC)(C(O)C(=O)N[C@H]2OCO[C@H]3C2O[C@H](C[C@@H](CO)OC)C(C)(C)C3OC)O[C@H](C)[C@@H]1C (stereo partly specified)', '<', 0.00932),
  ('O=C(c1nsc(Cl)c1Cl)N1CCCCC1', '>', 100),
  ('CC(=O)Nc1ccc(/C=c2\sc3nnc(/C=C/c4ccccc4)n3c2=O)cc1', '>', 50),
  ('C=C1CC2(OC1=O)c1ccccc1CCc1ccccc12', '=', 28),
  ('Cc1c(-c2ccccc2)n(C)c2cn[nH]c(=O)c12', '=', 31.8),
  ('O=C(c1cccs1)c1c(C(F)(F)F)n([O-])c2cc(F)c(F)cc2[n+]1=O', '=', 4.44),
  ('O=C(O)[C@@H]1C[C@@H](O)CN1', '>', 100),
  ('CSC(=S)NN=C1CCCCC1', '=', 37.7),
  ('O=c1cccc(C#CCCCCOC2CCCO2)o1 (stereo unspecified)', '>', 16.4),
  ('CCOC(=O)C(=Cc1ccc(Br)cc1)C(=O)OCC', '=', 3.12),
  ('O=C(NCCNCCO)c1ccc2oc3cc4ccccc4c(=O)n3c2c1', '=', 16.4),
  ('N/C(=N\C(=S)N1CCCCC1)N1CCCCC1', '>', 100),
  ('C#C[C@]1(O)CC[C@H]2[C@@H]3CC=C4c5nc(Nc6ccc(OC)cc6OC)sc5CC[C@]4(C)[C@H]3CC[C@@]21C', '=', 3.26),
  ('CCOC(=O)c1sc2nc(SC)nc(Nc3ccc(OC)c(OC)c3)c2c1N', '>', 100),
  ('Oc1cccc(C2SCc3nc4ccccc4n32)c1 (stereo unspecified)', '=', 38.2);
